Reference source for all entries: patent US6476019B1

tested on: Protein Synthesis; test: Safety Assessment: Protein Synthesis
measurement.type: Protein Synthesis

According to the records, this molecule O[C@@H]1CCC2(CCN(Cc3ccc(F)cc3)CC2)Nc2ccccc21 [Compound 50] displays Protein Synthesis of <10 % inhibition

// Protein Synthesis value for O[C@H]1CCC2(CCN(Cc3ccc(F)cc3)CC2)Nc2ccccc21 [Compound 49] : <10 % inhibition

GET /value?item= OC1CCC2(CCN(Cc3ccc(F)cc3)CC2)Nc2ccccc21 (racemic) [Compound 32] &field=Protein Synthesis returns <10 % inhibition
